Tested On: CD133 on Huh7 cells (human)
Sequence: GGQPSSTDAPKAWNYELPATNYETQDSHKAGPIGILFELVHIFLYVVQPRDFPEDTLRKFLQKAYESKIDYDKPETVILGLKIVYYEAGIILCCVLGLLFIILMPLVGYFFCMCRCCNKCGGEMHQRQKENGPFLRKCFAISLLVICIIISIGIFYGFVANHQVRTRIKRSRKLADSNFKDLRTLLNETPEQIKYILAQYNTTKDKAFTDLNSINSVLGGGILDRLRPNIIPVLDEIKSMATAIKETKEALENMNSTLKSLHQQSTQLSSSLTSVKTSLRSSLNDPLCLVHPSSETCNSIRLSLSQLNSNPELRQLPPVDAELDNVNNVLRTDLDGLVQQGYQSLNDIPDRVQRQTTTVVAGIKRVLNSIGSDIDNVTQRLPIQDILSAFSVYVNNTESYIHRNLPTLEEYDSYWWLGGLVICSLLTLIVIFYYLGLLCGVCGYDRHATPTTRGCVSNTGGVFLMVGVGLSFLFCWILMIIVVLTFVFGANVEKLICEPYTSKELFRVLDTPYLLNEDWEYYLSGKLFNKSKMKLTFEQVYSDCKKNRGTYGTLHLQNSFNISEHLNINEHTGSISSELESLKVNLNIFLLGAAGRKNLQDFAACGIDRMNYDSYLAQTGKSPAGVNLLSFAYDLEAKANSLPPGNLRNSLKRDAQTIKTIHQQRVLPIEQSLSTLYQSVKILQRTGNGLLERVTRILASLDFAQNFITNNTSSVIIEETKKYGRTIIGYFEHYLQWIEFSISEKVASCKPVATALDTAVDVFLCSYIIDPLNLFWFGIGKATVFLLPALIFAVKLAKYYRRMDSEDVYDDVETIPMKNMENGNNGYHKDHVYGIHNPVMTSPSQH
Protocol Notes: flow cytometry (cell binding)
Test Parameters: Huh7 cells, 37 C, 2'-O-methyl instead of 2'-fluoro on pyrimidines (C and U), Aptamer folded in PBS with 2.5 mM Mg2+ (85 C 5 min, RT, 37 C 15 min), binding to cells in PBS-based blocking buffer, 30 min, CD133-negative HEK293T cells …
Endpoint Name: Kd

Query string: Find the measured Kd of CGCGCGCCGCUCCUACAUAGCGGCGCGCG [negative control CD133 aptamer (2'-OMe)] and report it.
Result string: > 1 µM

meta.source: paper PMC9687680
